System: NCI-H322M lung
Assay Remarks: NCI-60 one-dose screen, 48 h (100 = growth as untreated, 0 = no growth, -100 = all killed)
Experimental Context: 10 µM unless noted
Method: Growth inhibition of the NCI-H322M human Non-Small Cell Lung tumor cell line is measured as a screen for anti-cancer activity. Cells are grown in 96 well plates and exposed to the test compound for 48 hours. Compounds are tested at a single concentration, which is 10^-5 M for most compounds. The reported endpoint is percent growth (GI% or GIPRCNT), where numbers from 0 - 100% represent growth inhibition, and numbers from -100% - 0 represent cell death. […]
Compounds without any hit were thinned out: in the full panel of roughly 83,000, 20% have a hit.
# reported growth; entries follow
Numeric only. Scale: %

Below, each entry is followed by its recorded growth result.
* COc1cc2nc(Nc3cccc(Cl)c3)nc(N)c2cc1OC | 89.7
* CC(C)(O)CC(=O)NCCn1ccc2ncnc(Nc3ccc(Oc4cccc(C(F)(F)F)c4)c(Cl)c3)c21 | -2.67
* ClCc1ccc(-c2ccc(Cn3cnc4c(Cl)nc(Cl)nc43)cc2)cc1 | 48.4
* CCN(CCO)CCCOc1ccc2c(Nc3cc(CC(=O)Nc4cccc(F)c4)[nH]n3)ncnc2c1 | 14.4
* O=C(Nc1cccc([N+](=O)[O-])c1)c1ccc(Cl)c(Cl)c1 | 69.7
* CNS(=O)(=O)Nc1nccc(Cc2c(C)c3ccc(Oc4ncccn4)cc3oc2=O)c1F | 33.3
* COc1cc(NC2CCC(=O)N2c2ccc(Cl)cc2Cl)cc(OC)c1OC (centres undefined) | 97.3
* Cn1c(Nc2ccc(C(F)(F)F)cc2)nc2cc(Oc3ccnc(-c4ncc(C(F)(F)F)[nH]4)c3)ccc21 | 30.8
* CCCC(=O)OCC1OC(n2cnc3c(=S)nc[nH]c32)C(OC(=O)CCC)C1OC(=O)CCC (centres undefined) | 35.4
* CC(C)=CCc1cc2c(cc1O)C1=C(C(=O)C3=C(NCCS3(=O)=O)C1=O)C(C=C(C)C)O2 (centres undefined) | 11.4

Any idea what growth came out for `O=C(Nc1ccc(-c2ccnc(Nc3ccc(N4CCOCC4)cc3)n2)cc1)[C@@H]1CCCN1` on NCI-H322M lung?
67.6

Any idea what growth came out for `CC(=O)C(C(C)=O)C(c1ccccc1)C(C(C)=O)C(C)=O` on NCI-H322M lung?
99.7

Any idea what growth came out for `CNC(=O)c1ccc(Nc2ncc(C(F)(F)F)c(NCc3nccnc3N(C)S(C)(=O)=O)n2)cc1` on NCI-H322M lung?
1.99

Any idea what growth came out for `Cc1cc(O)cc(-c2c(-c3ccnc(-c4cccnc4)c3)cnn2C)c1` on NCI-H322M lung?
66.6

Any idea what growth came out for `CN1CCN(CC(=O)Nc2ccc(-c3nc4ccccc4s3)cc2)CC1` on NCI-H322M lung?
77.9

Any idea what growth came out for `Cn1cc(-c2ncnc3ccc(-c4cnc(Cl)c(NS(C)(=O)=O)c4)cc23)c2ccccc21` on NCI-H322M lung?
0.878

Any idea what growth came out for `CCCCCCCC(=O)SCC/C=C/[C@@H]1CC(=O)NCc2nc(co2)C2=N[C@@](C)(CS2)C(=O)N[C@@H](C(C)C)C(=O)O1` on NCI-H322M lung?
-18.5

Any idea what growth came out for `CCCCCc1ccc(C)cc1OC(=O)CCl` on NCI-H322M lung?
97.3

Any idea what growth came out for Nc1nc(=S)c2ncn(C3OC(COC(=O)c4ccc(Cl)cc4)C(OC(=O)c4ccc(Cl)cc4)C3OC(=O)c3ccc(Cl)cc3)c2[nH]1 (centres undefined) on NCI-H322M lung?
97.8

====

System: NCI-H522 lung
Assay Remarks: NCI-60 one-dose screen, 48 h (100 = growth as untreated, 0 = no growth, -100 = all killed)
Experimental Context: 10 µM unless noted
Compounds without any hit were thinned out: in the full panel of roughly 83,000, 20% have a hit.
# note: exactly 90% is not below, so it is n; use y for growth strictly under it

// below: answered molecules
* CCOC(=O)c1sc(NC(=O)COc2ccc(/C=C3\Cc4ccc(Cl)cc4C3=O)cc2)nc1C | n
* O=C(c1ccc(F)c(F)c1Nc1ccc(I)cc1F)N1CC(O)([C@@H]2CCCCN2)C1 | y
* CC1(COc2ccc3c(c2)ncn3-c2ccc3cccc(N4CCC(N)CC4)c3n2)COC1 | y
* Nc1c2c(c(O)c3c1=C(CO)C=N3)=NCCS2 | y
* Cc1cc(C(O)CN(C)C)cc2c1ccc1cc(C(C)C)ccc12 (stereo not given) | y

Strictly below 90%: is that where growth of `CCCCN1C(=O)c2cccc3c(-c4ccc5c(c4)ncn5C4CCCCC4)ccc(c23)C1=O` sits?
y

Strictly below 90%: is that where growth of `O=S1(=O)OC(c2ccc(O)c(Cl)c2)(c2ccc(O)c(Cl)c2)c2ccccc21` sits?
n

Strictly below 90%: is that where growth of `CNC(=O)c1nn(C)c2c1C(C)(C)Cc1cnc(Nc3ccc(N4CCN(C)CC4)cc3)nc1-2` sits?
y

Strictly below 90%: is that where growth of `Cc1c(N)ccc(-c2ccc(N)c(C)c2S(=O)(=O)O)c1S(=O)(=O)O` sits?
n

====

Tested on: IGROV1 ovarian
Assay Remarks: NCI-60 one-dose screen, 48 h (100 = growth as untreated, 0 = no growth, -100 = all killed)
Experimental Context: 10 µM unless noted
The panel holds about 83,000 compounds, 20% with a hit somewhere; the sample as a whole holds those more often.
# reported growth; entries follow
Numeric only. Scale: %

• C[C@H](NC(=O)c1c(N)nn2cccnc12)c1cc2cccc(C#Cc3cnn(C)c3)c2c(=O)n1-c1ccccc1 = -22.7
• O=C1CC(c2ccc(Cl)cc2)c2ncn(-c3cccc(Cl)c3)c2N1 (stereo not given) = 59.8

State the recorded growth for this entry: O=C1CSC(c2c(F)cccc2Cl)N1NC(=O)C(O)(c1ccccc1)c1ccccc1 (stereo not given)
72

State the recorded growth for this entry: CC(=O)OC(C(=O)c1ccccc1)c1ccccc1 (stereo not given)
105

State the recorded growth for this entry: `CCn1cc(-c2ccnc3[nH]c(-c4cccc(CN(C)C)c4)cc23)c(-c2ccc(NC(=O)N(C)C)cc2)n1`
26.3

State the recorded growth for this entry: CC1CCC(n2cnc3c(Cl)ncnc32)O1 (stereo not given)
61.7

State the recorded growth for this entry: `COc1cc(-c2cc(-c3ccc(Nc4ccnc5cc(Cl)ccc45)cc3)nc(N3CCOCC3)n2)cc(OC)c1OC`
1.69

State the recorded growth for this entry: `O=C(NC[C@H](O)CO)c1ccncc1Nc1ccc(I)cc1F`
16.3

State the recorded growth for this entry: `COc1cc2ncnc(Nc3ccc(F)c(Cl)c3)c2cc1NC(=O)/C=C/CN1CCCCC1`
-47.7

State the recorded growth for this entry: `CCCCCCCC(=O)SCC/C=C/[C@@H]1CC(=O)NCc2cccc(n2)C2=N[C@@](C)(CS2)C(=O)N[C@@H](C(C)C)C(=O)O1`
3.42

State the recorded growth for this entry: `CNS(=O)(=O)Nc1nccc(Cc2c(C)c3ccc(Oc4ncccn4)cc3oc2=O)c1F`
28.7

State the recorded growth for this entry: `COc1cc(Nc2c(C#N)cnc3cc(OCCCN4CCN(C)CC4)c(OC)cc23)c(Cl)cc1Cl`
6.33

State the recorded growth for this entry: `C=CC(=O)N1CCC[C@@H](n2nc(-c3ccc(Oc4ccccc4)cc3)c3c(N)ncnc32)C1`
7.56

====

# reported growth; entries follow
Tested on: ACHN renal
Assay Remarks: NCI-60 one-dose screen, 48 h (100 = growth as untreated, 0 = no growth, -100 = all killed)
Experimental Context: 10 µM unless noted
This is part of a sample that, as a whole, favours compounds with a hit. Of some 83,000 tested, about 20% had one in any assay.
Numeric only. Scale: %

Below, each entry is followed by its recorded growth result.
* Cc1cccc(C)c1N1C(c2ccccc2)=NNC12C=CC(=O)c1c(O)cccc12 (stereo not given) | 88.6
* O=C(N/N=C/c1ccc(Cl)cc1)c1cc(-c2cc3ccccc3o2)nn1-c1ccccc1 | 93.5
* CC1CCC(n2cnc3c(Cl)ncnc32)O1 (stereo not given) | 104
* O=C(c1ccc(/C=C/c2n[nH]c3ccccc23)cc1)N1CCNCC1 | 36.5
* C=CC(=O)Nc1cccc(Oc2nc(Nc3ccc(N4CCN(C)CC4)cc3)nc3ccsc23)c1 | -96.6
* O=C(COc1cccc(/C=C2\Cc3ccc(Cl)cc3C2=O)c1)Nc1nccs1 | 91.8
* Nc1c(C(=O)c2ccccc2)sc2nc(-c3cccs3)ccc12 | 54.3
* CC[C@H](CO)Nc1nc(NCc2ccccc2)c2ncn(C(C)C)c2n1 | 46.8
* COc1cc(Nc2ncc3c(n2)-c2ccc(Cl)cc2C(c2c(F)cccc2OC)=NC3)ccc1C(=O)O | 64.4

Read the next record carefully.
State the recorded growth for this entry: `NC1(C(=O)N[C@@H](CCO)c2ccc(Cl)cc2)CCN(c2ncnc3[nH]ccc23)CC1`
53.4
